Reference source for all entries: the supplement of paper PMC9170038

- Test system: MS2 coat protein
- assay_name: apparent KD of MS2 coat protein; higher = weaker reporter binding
- test_settings: Eterna round: R107; input ligand: tryptophan 2.4 mM
quantity_measured: apparent KD of MS2 coat protein (nM)
// units = nM; emit number, no label

// known answers, use as guide
GAUUGGUAUAGAAGGAGCGUCGAAAAUGGGUAAACAUGAGGAUCACCCAUGUAAAGGGAACGACAGGUAGGUCGCUAUAUUAAUC [AstromonsSSArgB#30]    200
ACAUGAGGAUCACCCAUGUGAAGGCACGAUACCAGCUGAUCCCGUGGCCCUUGGCAGCGUCCGGUUUGGUCCGGCGGAUGAGACG [azamullin]    23.5
AGCGACAUGCGUGAUACCAGCUACAUGAGGAUCACCCAUGUCAGUAGGAAACUGCUGUGUAGCCCUUGGCAGCACAGUGCAUGUC [Exclusion - Theophylline B (Freestyle 27)]    36.4

Request: State the recorded apparent KD of MS2 coat protein for this entry: AUAACAUGAGGAUCACCCAUGUAGAGUGAUACCAGACUACGUAAUGUCCCUUGGCAGCACAAGUAAAGUUACGAAUAAUGAUAGA [JR_SSTheophyA_Sub002]
Response: 137

Request: State the recorded apparent KD of MS2 coat protein for this entry: GGAUAGGACACGGCCGCCACUAGCUAGGAUACUAGCAACAUUUCCUCACCUGAGGAUCACCCUGGUAGGACCGGGUGUCCUAUCG
Response: 394

Request: State the recorded apparent KD of MS2 coat protein for this entry: UGUAUGUGAUCUGAUACCAGCUAGCGGAAACGCAAAAGCUUGAGGAUCACCCAAGUGGAAAGCCCUUGGCAGCAGAUCGCAUACU [Denovo 1 #StaticStem #AlternativeMS2]
Response: 17.4

* * *

- Tested on: MS2 coat protein
- assay_name: apparent KD of MS2 coat protein; higher = weaker reporter binding
- test_settings: Eterna round: R107; input ligand: tryptophan 2.4 mM
As shown below, each of these sequences has a reported apparent KD of MS2 coat protein value.
// units = nM; emit number, no label

GCACCAGGUACGGAUACCAGCUAUAGGCCCAAUGGGCGACAUGAGGAUCACCCAUGUAAUGGCCCUUGGCAGCUGUACCUGGUGC [SSThB NP+V+V2 #11 +-Same Structure]    99.8
AAGACGGUCGGAAGGAGCGGUACAUGAGGAUCACCCAUGUACUCCUGGGCAUCCGUAGUGUGCCAGGUAGGUCGCCGAUUGCGGG [XArg-B14]    15.3
UGUAUGGACUGAAGGAGCGCCUCAAAAUAACAUGAGGAUCACCCAUGUGGCGAAAGCCUUGGGCAGGUAGGUCGCAGUCCAUACU [ArgBX 1 #StaticStem]    52.9
UAUAUAAUAACAGAUACCAGCGUGUUAUAAAACAUGAGGAUCACCCAUGUAGUGAUCAAGCGCCCUUGGCAGCUGGUAUUAUAUA [7.A]    47.6
AUUGACGUUGCGGCCGCCACUAGGCGUUCCCGGACAUGAGGAUCACCCAUGUGCUAGAGUGUAACUAGGACCGGGUAACCUCAGC [Verevean]    176

Request: State the recorded apparent KD of MS2 coat protein for this entry: ACGUAAUGCAGAAGGAGCGUCAUUUUAAAACAUGAGGAUCACCCAUGUAAUAUUUUUGUGUGACAGGUAGGUCGCUGAAGUACGA [JR_SSArginiB_Sub007]
Response: 11.8

Request: State the recorded apparent KD of MS2 coat protein for this entry: UUUUUUAACAUGGCGUAUCGGAAAACCGAUACCAGUACAGAAAUGUACCCUUGGCAGCGGCGUUUUACAUGAGGAUCACCCAUGU [Ex Theophylline A 3]
Response: 27.7

Request: State the recorded apparent KD of MS2 coat protein for this entry: UGGCAGGAGUGAUCCUCCUGCCAAGGUGAUACCAGCAUCGAAAGAUGCCCUUGGCAGCACCAACAUGAGGAUCACCCAUGUAAUA [(MT)''-(M)'-(T')-(Theo)-(Ms2)_Design1/22_10]
Response: 104

Request: State the recorded apparent KD of MS2 coat protein for this entry: GUCCGCAGCCGAAGGAGCGCUAGAAGGUGACAUGAGGAUCACCCAUGUGUGUGAUGUGGCUAGCAGGUAGGUCGCGGAGCGGAUU [Exclusion - Arginine B (Freestyle 18)]
Response: 61.9

Request: State the recorded apparent KD of MS2 coat protein for this entry: UCGUGUAUUUCGGAUACCAGUGAAAUCGAUACAUGAGGAUCACCCAUGUGAGAGGAUGUACACCCUUGGCAGCUGUAUAUAUCUG [fgfmullin]
Response: 21.9

Request: State the recorded apparent KD of MS2 coat protein for this entry: GUGUUAUGCUCGGCCGCCACUCUGACAUGAGGAUCACCCAUGUUGUACAUGAGGAUCACCCAUGUGAGGACCGGGAGAAACACGA [Exclusion Tryptophan B GF9]
Response: 274

Request: State the recorded apparent KD of MS2 coat protein for this entry: AUUUUUCUAUCAGAUACCAGACAACUCCAAACAUGAGGAUCACCCAUGUAUUGGGUGUUCGUCCCUUGGCAGCUGUUAAUGUUAA [JR_SSTheophyB_Sub003]
Response: 16.9
